Values compiled from PubChem BioAssay.

# Tested on: wheat germ agglutinin (Triticum aestivum), Alexa647-labelled
# Test Description: wheat germ agglutinin binders on compound microarrays, profiling panel, artefact control for SMM control-protein annotation, biochemical, small-molecule microarray, 635/667 nm fluorescence (AID 1140);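 also: score merges 667 nm feature emission with signal to noise over triplicate slides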
# Conditions Used: WGA-A647 binding, 635 nm fluorescence, higher = more signal
Use -0.04 as the dividing line for composite z-score, with the line itself on the 1.0 side and lower values as 0.0.

Example entries and their recorded answers appear below.
>>> print(df.to_string())
                                   compound  class_assignment
0  CCOC(=O)[C@H](CC(C)C)NC(=O)CCC1CC(OC(=O)NCCc2ccc(F)cc2)CC2(CCCC(COC(=O)NCC(c3ccccc3)c3ccccc3)O2)O1 (stereo partly drawn)               1.0
1  CCN1C(=O)[C@H]2[C@H]3[C@H](O)[C@H](O)CC(=NNC(=O)OCc4ccc(OC)cc4)[C@@H]3CC[C@H]2C1=O               1.0

Query string: For this compound, is measured composite z-score -0.04 or higher? O=C1C=C[C@@H](O)[C@@H]2[C@@H]3C(=O)N(C[C@@H]4CCCO4)C(=O)[C@@H]3CC[C@@H]12
Result string: 1.0

Query string: For this compound, is measured composite z-score -0.04 or higher? O=C1[C@H]2[C@H]3[C@H](O)[C@H](O)CC(=NOC[C@@H](O)COCc4ccco4)[C@@H]3CC[C@H]2C(=O)N1C[C@@H]1CCCO1
Result string: 0.0

Query string: For this compound, is measured composite z-score -0.04 or higher? CO[C@H]1COC(=O)[C@@H](C)COC(=O)[C@H](C)NC(=O)CC=C[C@H]1C
Result string: 0.0

Query string: For this compound, is measured composite z-score -0.04 or higher? CO[C@@H]1C=CCC(=O)N[C@@H](C)C(=O)OC[C@@H](OC)[C@H](C)CCCC(=O)OC[C@H]1C
Result string: 0.0

Query string: For this compound, is measured composite z-score -0.04 or higher? C[C@@H](ON=C1[C@H]2CCn3c(=O)n(-c4ccccc4)c(=O)n3[C@H]2[C@H](O)[C@@H]2O[C@H]12)c1cn([C@@H]2COC[C@H]2O)nn1
Result string: 1.0

* * *

# Target Or Test System: Pro-neuregulin-1, membrane-bound isoform (Homo sapiens) (UniProt Q02297)
# Sequence (Q02297 whole entry, looked up, canonical isoform): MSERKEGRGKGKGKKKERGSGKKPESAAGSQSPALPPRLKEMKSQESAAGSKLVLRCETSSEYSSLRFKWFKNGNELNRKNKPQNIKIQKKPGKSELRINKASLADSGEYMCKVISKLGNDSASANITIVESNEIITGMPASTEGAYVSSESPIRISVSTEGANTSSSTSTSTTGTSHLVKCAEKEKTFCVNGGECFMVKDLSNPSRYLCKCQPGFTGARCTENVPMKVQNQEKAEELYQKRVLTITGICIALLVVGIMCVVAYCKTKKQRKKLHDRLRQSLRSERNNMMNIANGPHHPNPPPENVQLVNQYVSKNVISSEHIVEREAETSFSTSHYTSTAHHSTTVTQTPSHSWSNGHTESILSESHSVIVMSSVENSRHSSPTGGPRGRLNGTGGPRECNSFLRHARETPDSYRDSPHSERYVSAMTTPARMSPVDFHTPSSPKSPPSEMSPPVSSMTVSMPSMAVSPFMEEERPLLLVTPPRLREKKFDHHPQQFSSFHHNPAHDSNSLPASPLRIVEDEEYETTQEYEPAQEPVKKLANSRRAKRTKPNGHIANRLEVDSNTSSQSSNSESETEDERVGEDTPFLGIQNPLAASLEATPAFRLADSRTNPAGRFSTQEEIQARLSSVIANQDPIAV
# Test Description: NRG1 binders on small-molecule microarrays, primary screen, psychiatric disease protein project, biochemical, small-molecule microarray, fluorescence 635/667 (AID 1075);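 also: score combines 667 nm spot fluorescence with signal to noise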
# Conditions Used: NRG1 binding, 635 nm fluorescence, higher = more signal
Use -0.1 as the dividing line for composite z-score, with the line itself on the 1 side and lower values as 0.

Example entries and their recorded answers appear below.
Compound	Target Or Test System	Class Assignment
CC(C)=CCCC(C)=CCON=C1C[C@@H](O)[C@@H](O)[C@@H]2[C@@H]3C(=O)N(c4cccc(Oc5ccccc5)c4)C(=O)[C@@H]3CC[C@@H]12	Pro-neuregulin-1, membrane-bound isoform (Homo sapiens) (UniProt Q02297)	1
CCc1cc2c(nc1CC)CCN(CCC(C)=NO[C@H](C)c1cn([C@@H]3COC[C@H]3O)nn1)C2	Pro-neuregulin-1, membrane-bound isoform (Homo sapiens) (UniProt Q02297)	0
CCCCC#C[C@@H]1C=C[C@H](OC(C)=O)[C@@H](COC(C)=O)O1	Pro-neuregulin-1, membrane-bound isoform (Homo sapiens) (UniProt Q02297)	1

Alright, here's another compound for you.
Query string: For this compound, is measured composite z-score -0.1 or higher? Cc1ccc(S(=O)(=O)N[C@H]2COC(=O)CC=C[C@H](C)[C@@H](NS(=O)(=O)c3ccc(C)cc3)COC(=O)CC=C[C@@H]2C)cc1
Result string: 0
